Experiment: Displacement of [3H]DTG from opioid sigma2 receptor in rat brain homogenate
Type: tissue-based
Ki: recorded values
# number only, unit nM dropped from output

The following compounds have reported results that may help.
>  <molecule>
CN(CCc1ccc(OC(F)(F)F)cc1)CCN1CCCCC1

>  <observed.value>
25

$$$$
>  <molecule>
CCN(CCc1ccccc1OC(F)(F)F)CCN1CCCC1

>  <observed.value>
82

$$$$
>  <molecule>
CCN(CCc1cccc(OC(F)(F)F)c1)CCN1CCCC1

>  <observed.value>
43

$$$$

Challenge: Please give measured Ki of the following entry: CN(CCc1ccccc1OC(F)(F)F)CCN1CCCC1
Response given: 43

Challenge: Please give measured Ki of the following entry: CN(CCc1ccc(OC(F)(F)F)cc1)CCN1CCCC1
Response given: 36

Challenge: Please give measured Ki of the following entry: CCN(CCc1ccccc1OC(F)(F)F)CCN1CCCCC1
Response given: 55

Challenge: Please give measured Ki of the following entry: CN(CCc1cccc(OC(F)(F)F)c1)CCN1CCCCC1
Response given: 31
